Hello, the source for this data is ChEMBL document CHEMBL1125209, in case you need it.

- TARGET_DESC: Gastrin/cholecystokinin type B receptor (Cavia porcellus)
- PROCEDURE_SUMMARY: Binding affinity towards cholecystokinin type B receptor in guinea pig cortex by using [125I]BH-CCK-8 as radioligand
pIC50: −log10 of the molar value. *1 amine or outer side, *2 acyl side, *3 side chain or, on linkers, in order; H or OH if unused. Where a SMILES comes first, the peptide text is derived from it. Side-chain parts run from the residue outwards. The star is where a group is joined. Boc = CC(C)(C)OC(=O)*; CO = O=C([*:1])[*:2]; NHPh = c1ccc(N*)cc1

[
  {
    "MOLECULE": "CC(C)(C)OC(=O)N[C@@H](Cc1c[nH]c2ccccc12)C(=O)N[C@@H](CCCCNC(=O)Nc1ccccc1)C(=O)N[C@@H](CC(=O)O)C(=O)N[C@@H](Cc1ccccc1)C(N)=O (Boc-WK([CO-NHPh])DF-NH2)",
    "pIC50": 5.96
  }
]

* * *

- PROCEDURE_SUMMARY: Selectivity ratio of IC50 measured in guinea pig cortex to that of IC50 for guinea pig pancreas
- SETTINGS: Cavia porcellus
*1 amine or outer side, *2 acyl side, *3 side chain or, on linkers, in order; H or OH if unused. Where a SMILES comes first, the peptide text is derived from it. Side-chain parts run from the residue outwards. [ ]: non-standard residue; d: D form. The star is where a group is joined. NH(1-naphthyl) = c1ccc2c(N*)cccc2c1; hCit = NC(=O)NCCCC[C@H](N)C(=O)O; NH(2-Me-phenyl) = Cc1ccccc1N*; 3Abz = Nc1cccc(C(=O)O)c1; Orn = NCCC[C@H](N)C(=O)O; βNA = c1ccc2cc(N*)ccc2c1; 2Abz = Nc1ccccc1C(=O)O; Boc = CC(C)(C)OC(=O)*; X1 = Clc1cccc(Cl)c1N*; X7 = Clc1cccc(N*)c1Cl; CO = O=C([*:1])[*:2]; X2 = CC(C)c1ccccc1N*
Criterion: Selectivity strictly less than 50. Met: true (1). Not met: false (0).

[
  {
    "MOLECULE": "CC(C)(C)OC(=O)N[C@@H](Cc1c[nH]c2ccccc12)C(=O)N[C@@H](CCCCNC(=O)Nc1c(Cl)cccc1Cl)C(=O)N[C@@H](CC(=O)O)C(=O)N[C@@H](Cc1ccccc1)C(N)=O (Boc-WK([CO-X1])DF-NH2)",
    "ASSIGNED_LABEL": "true (1)"
  },
  {
    "MOLECULE": "CC(C)(C)OC(=O)N[C@@H](Cc1c[nH]c2ccccc12)C(=O)N[C@@H](CCCCNC(=O)Nc1cccc(Cl)c1Cl)C(=O)N[C@@H](CC(=O)O)C(=O)N[C@@H](Cc1ccccc1)C(N)=O (Boc-WK([CO-X7])DF-NH2)",
    "ASSIGNED_LABEL": "false (0)"
  },
  {
    "MOLECULE": "CC(C)(C)OC(=O)N[C@@H](Cc1c[nH]c2ccccc12)C(=O)N[C@@H](CCCCNC(N)=O)C(=O)N[C@@H](CC(=O)O)C(=O)N[C@@H](Cc1ccccc1)C(N)=O (Boc-W[hCit]DF-NH2)",
    "ASSIGNED_LABEL": "true (1)"
  },
  {
    "MOLECULE": "CC(C)(C)OC(=O)N[C@@H](Cc1c[nH]c2ccccc12)C(=O)N[C@@H](CCCCNC(=O)Nc1cccc2ccccc12)C(=O)N[C@@H](CC(=O)O)C(=O)N[C@@H](Cc1ccccc1)C(N)=O (Boc-WK([CO-NH(1-naphthyl)])DF-NH2)",
    "ASSIGNED_LABEL": "false (0)"
  },
  {
    "MOLECULE": "Cc1ccccc1NC(=O)NCCC[C@H](NC(=O)[C@H](Cc1c[nH]c2ccccc12)NC(=O)OC(C)(C)C)C(=O)N[C@@H](CC(=O)O)C(=O)N[C@@H](Cc1ccccc1)C(N)=O (Boc-W[Orn]([CO-NH(2-Me-phenyl)])DF-NH2)",
    "ASSIGNED_LABEL": "true (1)"
  },
  {
    "MOLECULE": "CC(C)c1ccccc1NC(=O)NCCCC[C@H](NC(=O)[C@H](Cc1c[nH]c2ccccc12)NC(=O)OC(C)(C)C)C(=O)N[C@@H](CC(=O)O)C(=O)N[C@@H](Cc1ccccc1)C(N)=O (Boc-WK([CO-X2])DF-NH2)",
    "ASSIGNED_LABEL": "false (0)"
  },
  {
    "MOLECULE": "CC(C)(C)OC(=O)N[C@@H](Cc1c[nH]c2ccccc12)C(=O)N[C@@H](CCCCNC(=O)Nc1ccc2ccccc2c1)C(=O)N[C@@H](CC(=O)O)C(=O)N[C@@H](Cc1ccccc1)C(N)=O (Boc-WK([CO-βNA])DF-NH2)",
    "ASSIGNED_LABEL": "false (0)"
  },
  {
    "MOLECULE": "COC(=O)c1cccc(NC(=O)NCCCC[C@H](NC(=O)[C@H](Cc2c[nH]c3ccccc23)NC(=O)OC(C)(C)C)C(=O)N[C@@H](CC(=O)O)C(=O)N[C@@H](Cc2ccccc2)C(N)=O)c1 (Boc-WK([CO-3Abz-OMe])DF-NH2)",
    "ASSIGNED_LABEL": "false (0)"
  },
  {
    "MOLECULE": "COC(=O)c1ccccc1NC(=O)NCCCC[C@H](NC(=O)[C@H](Cc1c[nH]c2ccccc12)NC(=O)OC(C)(C)C)C(=O)N[C@@H](CC(=O)O)C(=O)N[C@@H](Cc1ccccc1)C(N)=O (Boc-WK([CO-2Abz-OMe])DF-NH2)",
    "ASSIGNED_LABEL": "false (0)"
  }
]

* * *

- TARGET_DESC: UniProt Q63931
- PROCEDURE_SUMMARY: Binding affinity for Cholecystokinin type A receptor in guinea pig pancreas by using [125I]BH-CCK-8 as radioligand
*1 amine or outer side, *2 acyl side, *3 side chain or, on linkers, in order; H or OH if unused. Where a SMILES comes first, the peptide text is derived from it. Side-chain parts run from the residue outwards. [ ]: non-standard residue; d: D form. The star is where a group is joined. NH(3-Cl-phenyl) = Clc1cccc(N*)c1; NH(2-Me-phenyl) = Cc1ccccc1N*; hLys = NCCCCC[C@H](N)C(=O)O; Orn = NCCC[C@H](N)C(=O)O; Boc = CC(C)(C)OC(=O)*; CO = O=C([*:1])[*:2]

[
  {
    "COMPOUND": "CC(C)(C)OC(=O)N[C@@H](Cc1c[nH]c2ccccc12)C(=O)N[C@@H](CCCCNC(=O)Nc1cccc(Cl)c1)C(=O)N[C@@H](CC(=O)O)C(=O)N[C@@H](Cc1ccccc1)C(N)=O (Boc-WK([CO-NH(3-Cl-phenyl)])DF-NH2)",
    "IC50": "0.051 µM"
  },
  {
    "COMPOUND": "CC(C)(C)OC(=O)N[C@@H](Cc1c[nH]c2ccccc12)C(=O)N[C@@H](CCCC/N=C(\\S)Nc1ccccc1Cl)C(=O)N[C@@H](CC(=O)O)C(=O)N[C@@H](Cc1ccccc1)C(N)=O",
    "IC50": "0.1 µM"
  },
  {
    "COMPOUND": "Cc1ccccc1NC(=O)NCCCCC[C@H](NC(=O)[C@H](Cc1c[nH]c2ccccc12)NC(=O)OC(C)(C)C)C(=O)N[C@@H](CC(=O)O)C(=O)N[C@@H](Cc1ccccc1)C(N)=O (Boc-W[hLys]([CO-NH(2-Me-phenyl)])DF-NH2)",
    "IC50": "0.093 µM"
  },
  {
    "COMPOUND": "Cc1ccccc1NC(=O)NCCC[C@H](NC(=O)[C@H](Cc1c[nH]c2ccccc12)NC(=O)OC(C)(C)C)C(=O)N[C@@H](CC(=O)O)C(=O)N[C@@H](Cc1ccccc1)C(N)=O (Boc-W[Orn]([CO-NH(2-Me-phenyl)])DF-NH2)",
    "IC50": "0.65 µM"
  }
]

* * *

- TARGET_DESC: Cholecystokinin receptor type A (Cavia porcellus, UniProt Q63931)
- Sequence (Q63931 whole entry): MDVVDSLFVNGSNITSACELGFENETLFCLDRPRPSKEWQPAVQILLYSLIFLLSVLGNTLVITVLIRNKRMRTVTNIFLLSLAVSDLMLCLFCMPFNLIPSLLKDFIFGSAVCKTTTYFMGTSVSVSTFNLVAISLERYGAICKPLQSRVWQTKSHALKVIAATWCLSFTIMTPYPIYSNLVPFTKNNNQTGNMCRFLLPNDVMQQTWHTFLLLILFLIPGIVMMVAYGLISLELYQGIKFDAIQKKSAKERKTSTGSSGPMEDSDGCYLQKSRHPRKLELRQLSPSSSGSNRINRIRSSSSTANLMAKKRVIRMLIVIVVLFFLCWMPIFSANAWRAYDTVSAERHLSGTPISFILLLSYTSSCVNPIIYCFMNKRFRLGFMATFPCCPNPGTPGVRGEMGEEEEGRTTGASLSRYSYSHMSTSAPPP
- PROCEDURE_SUMMARY: Binding affinity for Cholecystokinin type A receptor in guinea pig pancreas by using [125I]BH-CCK-8 as radioligand
*1 amine or outer side, *2 acyl side, *3 side chain or, on linkers, in order; H or OH if unused. Where a SMILES comes first, the peptide text is derived from it. Side-chain parts run from the residue outwards. [ ]: non-standard residue; d: D form. The star is where a group is joined. NH(2-CF3-phenyl) = FC(F)(F)c1ccccc1N*; NH(2,6-Me2-phenyl) = Cc1cccc(C)c1N*; NHPh(4-CF3) = FC(F)(F)c1ccc(N*)cc1; hCit = NC(=O)NCCCC[C@H](N)C(=O)O; X9 = FC(F)(F)c1cccc(N*)c1; 2Abz = Nc1ccccc1C(=O)O; Boc = CC(C)(C)OC(=O)*; CO = O=C([*:1])[*:2]; X2 = CC(C)c1ccccc1N*; NHtBu = CC(C)(C)N*; X10 = Brc1ccccc1N*
Field 'label' (enum: T / F). Set to T when IC50 is strictly under 200 nM; else F.

[
  {
    "COMPOUND": "CC(C)c1ccccc1NC(=O)NCCCC[C@H](NC(=O)[C@H](Cc1c[nH]c2ccccc12)NC(=O)OC(C)(C)C)C(=O)N[C@@H](CC(=O)O)C(=O)N[C@@H](Cc1ccccc1)C(N)=O (Boc-WK([CO-X2])DF-NH2)",
    "ASSIGNED_LABEL": "T"
  },
  {
    "COMPOUND": "CC(C)(C)OC(=O)N[C@@H](Cc1c[nH]c2ccccc12)C(=O)N[C@@H](CCCCNC(=O)Nc1ccccc1C(F)(F)F)C(=O)N[C@@H](CC(=O)O)C(=O)N[C@@H](Cc1ccccc1)C(N)=O (Boc-WK([CO-NH(2-CF3-phenyl)])DF-NH2)",
    "ASSIGNED_LABEL": "T"
  },
  {
    "COMPOUND": "CC(C)(C)OC(=O)N[C@@H](Cc1c[nH]c2ccccc12)C(=O)N[C@@H](CCCCNC(=O)Nc1ccccc1Br)C(=O)N[C@@H](CC(=O)O)C(=O)N[C@@H](Cc1ccccc1)C(N)=O (Boc-WK([CO-X10])DF-NH2)",
    "ASSIGNED_LABEL": "T"
  },
  {
    "COMPOUND": "CC(C)(C)OC(=O)N[C@@H](Cc1c[nH]c2ccccc12)C(=O)N[C@@H](CCCCNC(=O)Nc1cccc(C(F)(F)F)c1)C(=O)N[C@@H](CC(=O)O)C(=O)N[C@@H](Cc1ccccc1)C(N)=O (Boc-WK([CO-X9])DF-NH2)",
    "ASSIGNED_LABEL": "T"
  },
  {
    "COMPOUND": "CC(C)(C)NC(=O)NCCCC[C@H](NC(=O)[C@H](Cc1c[nH]c2ccccc12)NC(=O)OC(C)(C)C)C(=O)N[C@@H](CC(=O)O)C(=O)N[C@@H](Cc1ccccc1)C(N)=O (Boc-WK([CO-NHtBu])DF-NH2)",
    "ASSIGNED_LABEL": "T"
  },
  {
    "COMPOUND": "CC(C)(C)OC(=O)N[C@@H](Cc1c[nH]c2ccccc12)C(=O)N[C@@H](CCCCNC(N)=O)C(=O)N[C@@H](CC(=O)O)C(=O)N[C@@H](Cc1ccccc1)C(N)=O (Boc-W[hCit]DF-NH2)",
    "ASSIGNED_LABEL": "F"
  },
  {
    "COMPOUND": "CC(C)(C)OC(=O)N[C@@H](Cc1c[nH]c2ccccc12)C(=O)N[C@@H](CCCCNC(=O)Nc1ccc(C(F)(F)F)cc1)C(=O)N[C@@H](CC(=O)O)C(=O)N[C@@H](Cc1ccccc1)C(N)=O (Boc-WK([CO-NHPh(4-CF3)])DF-NH2)",
    "ASSIGNED_LABEL": "T"
  },
  {
    "COMPOUND": "COC(=O)c1ccccc1NC(=O)NCCCC[C@H](NC(=O)[C@H](Cc1c[nH]c2ccccc12)NC(=O)OC(C)(C)C)C(=O)N[C@@H](CC(=O)O)C(=O)N[C@@H](Cc1ccccc1)C(N)=O (Boc-WK([CO-2Abz-OMe])DF-NH2)",
    "ASSIGNED_LABEL": "T"
  },
  {
    "COMPOUND": "Cc1cccc(C)c1NC(=O)NCCCC[C@H](NC(=O)[C@H](Cc1c[nH]c2ccccc12)NC(=O)OC(C)(C)C)C(=O)N[C@@H](CC(=O)O)C(=O)N[C@@H](Cc1ccccc1)C(N)=O (Boc-WK([CO-NH(2,6-Me2-phenyl)])DF-NH2)",
    "ASSIGNED_LABEL": "F"
  }
]
